Listing: F of selected molecules
System: Mus musculus
assay.text: Oral bioavailability in Balb/c mouse at 20 mg/kg
Type: ADME, organism-based
measurement.parameters: in vivo
API: value field is a number in %; no unit string.

In [3]: df
Out[3]:
                                   molecule  meas_value
0  CC1(C)c2nc(-c3ccc(F)cc3)c(Nc3ccc(F)cc3)n2CCN1C(=O)CN [GANAPLACIDE]          74
1  CC1(C)NCCn2c1nc(-c1ccc(F)cc1)c2Nc1ccc(F)cc1          53
2  Cc1ccc(Nc2c(-c3ccc(F)cc3)nc3n2CCN(C(=O)C(C)(C)N)C3(C)C)cc1         107

Moving on to the next molecule.
-- ask Identify the measured F of CC1(C)c2nc(-c3ccc(F)cc3)c(Nc3ccc(F)c(F)c3)n2CCN1C(=O)CN for Mus musculus.
-- reply 75

###

Test system: Plasmodium falciparum
assay.text: Antimalarial activity against Plasmodium falciparum 3D7 after 72 hrs by SYBR green fluorescence assay
Format: functional, organism-based
measurement.parameters: 3D7, 72 h
Listing: pEC50 of selected compounds
The scale used: pEC50 is minus the common logarithm of the concentration in molar units.

Worked cases, answers included:
                                   compound  meas_value
0  CC1(C)c2nc(-c3ccc(F)cc3)c(Nc3ccc(F)cc3)n2CCN1C(=O)CN [GANAPLACIDE]        8.00
1  CC(C)[C@H]1c2nc(-c3ccc(F)cc3)c(Nc3ccc(F)c(Cl)c3)n2CCN1C(=O)CN        6.46
2  Cc1ccc(Nc2c(-c3ccc(F)cc3)nc3n2CCN(C(=O)CN)C3(C)C)cc1        8.10
3  Cc1ccc(Nc2c(-c3ccc(F)cc3)nc3n2CC(=O)NC3(C)C)cc1        6.86
4  CC1(C)c2nc(-c3ccc(F)cc3)c(Nc3ccc(F)c(Cl)c3)n2CCN1C(=O)CN        7.57

Moving on to the next compound.
-- ask Dear colleague, I am looking for the recorded pEC50 of the following compound: CC(C)[C@@H]1c2nc(-c3ccc(F)cc3)c(Nc3ccc(F)c(Cl)c3)n2CCN1C(=O)CN
-- reply 6.77

###

study.target: Voltage-gated inwardly rectifying potassium channel KCNH2 (Homo sapiens, UniProt Q12809)
Sequence (Q12809 whole entry): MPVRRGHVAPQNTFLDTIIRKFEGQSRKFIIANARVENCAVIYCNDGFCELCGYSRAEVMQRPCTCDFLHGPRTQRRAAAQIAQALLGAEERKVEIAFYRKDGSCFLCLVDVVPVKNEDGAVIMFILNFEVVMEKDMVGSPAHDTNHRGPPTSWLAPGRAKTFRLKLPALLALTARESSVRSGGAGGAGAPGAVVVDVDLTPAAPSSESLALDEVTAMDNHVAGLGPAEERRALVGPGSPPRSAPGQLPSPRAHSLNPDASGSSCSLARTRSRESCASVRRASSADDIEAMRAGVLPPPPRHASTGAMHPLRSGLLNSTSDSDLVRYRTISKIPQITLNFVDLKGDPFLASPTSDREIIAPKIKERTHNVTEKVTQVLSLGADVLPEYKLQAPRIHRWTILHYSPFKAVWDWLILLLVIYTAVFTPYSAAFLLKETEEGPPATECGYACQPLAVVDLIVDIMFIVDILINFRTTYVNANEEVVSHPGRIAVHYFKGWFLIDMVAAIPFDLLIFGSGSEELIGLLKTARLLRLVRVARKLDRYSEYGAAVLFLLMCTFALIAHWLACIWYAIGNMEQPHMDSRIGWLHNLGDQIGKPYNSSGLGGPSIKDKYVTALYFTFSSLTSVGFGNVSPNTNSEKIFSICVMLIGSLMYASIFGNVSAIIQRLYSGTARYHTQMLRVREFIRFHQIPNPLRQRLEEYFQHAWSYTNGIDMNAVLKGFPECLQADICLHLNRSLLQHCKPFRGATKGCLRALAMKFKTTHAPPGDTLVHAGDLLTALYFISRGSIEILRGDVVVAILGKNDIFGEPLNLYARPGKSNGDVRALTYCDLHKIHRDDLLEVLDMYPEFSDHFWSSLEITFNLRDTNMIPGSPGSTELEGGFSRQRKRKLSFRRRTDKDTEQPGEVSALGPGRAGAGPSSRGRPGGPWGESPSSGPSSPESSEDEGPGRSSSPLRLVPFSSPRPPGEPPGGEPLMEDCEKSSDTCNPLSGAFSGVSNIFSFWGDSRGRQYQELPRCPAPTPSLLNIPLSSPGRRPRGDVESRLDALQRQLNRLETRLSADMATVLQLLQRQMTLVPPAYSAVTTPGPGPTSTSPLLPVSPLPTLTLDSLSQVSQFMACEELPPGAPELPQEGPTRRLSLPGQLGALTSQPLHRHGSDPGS
assay.text: Inhibition of human ERG channel expressed in CHO cells by patch clamp assay
Assay type: cell-based
quantity.measured: pIC50
The scale used: pIC50 is minus the common logarithm of the concentration in molar units.

-- ask Dear colleague, I am looking for the recorded pIC50 of the following molecule: CC1(C)c2nc(-c3ccc(F)cc3)c(Nc3ccc(F)cc3)n2CCN1C(=O)CN [GANAPLACIDE]
-- reply 4.87

###

assay.text: Tmax in Wistar rat at 10 mg/kg, po
Type: ADME, organism-based
Parameters: dose 10 mg/kg, route oral
measurement.parameters: in vivo
quantity.measured: Tmax (h)
API: value field is a number in h; no unit string.

-- ask Dear colleague, I am looking for the recorded Tmax of the following compound: CC1(C)c2nc(-c3ccc(F)cc3)c(Nc3ccc(F)cc3)n2CCN1C(=O)CN [GANAPLACIDE]
-- reply 1.5

###

assay.text: Oral bioavailability in Wistar rat at 100 mg/kg
Assay type: ADME, organism-based
measurement.parameters: in vivo
quantity.measured: bioavailability (%)
API: value field is a number in %; no unit string.

-- ask Dear colleague, I am looking for the recorded bioavailability of the following compound: CC1(C)c2nc(-c3ccc(F)cc3)c(Nc3ccc(F)cc3)n2CCN1C(=O)CN [GANAPLACIDE]
-- reply 57

###

Listing: half-life of selected compounds
assay.text: Half life in Balb/c mouse at 5 mg/kg, iv
Type: ADME, organism-based
Set-up: dose 5 mg/kg, route intravenous
measurement.parameters: in vivo
API: value field is a number in h; no unit string.

Worked cases, answers included:
In [3]: df
Out[3]:
                                   compound  meas_value
0  CC1(C)NCCn2c1nc(-c1ccc(F)cc1)c2Nc1ccc(F)cc1         0.8
1  CC1(C)c2nc(-c3ccc(F)cc3)c(Nc3ccc(F)c(F)c3)n2CCN1C(=O)CN         5.5
2  CC1(C)c2nc(-c3ccc(F)cc3)c(Nc3ccc(F)cc3)n2CCN1C(=O)CN [GANAPLACIDE]           2

Moving on to the next compound.
-- ask Dear colleague, I am looking for the recorded half-life of the following compound: Cc1ccc(Nc2c(-c3ccc(F)cc3)nc3n2CCN(C(=O)C(C)(C)N)C3(C)C)cc1
-- reply 18

###

assay.text: Clearance in Wistar rat at 3 mg/kg, iv
Type: ADME, organism-based
Parameters: dose 3 mg/kg, route intravenous
measurement.parameters: in vivo
quantity.measured: clearance
Be sure to follow the number with its unit.

-- ask Dear colleague, I am looking for the recorded clearance of the following compound: CC1(C)c2nc(-c3ccc(F)cc3)c(Nc3ccc(F)cc3)n2CCN1C(=O)CN [GANAPLACIDE]
-- reply 4.05 L/h/kg

###

assay.text: AUC (all) in Wistar rat at 100 mg/kg, po
Type: ADME, organism-based
Parameters: dose 100 mg/kg, route oral
measurement.parameters: plasma
quantity.measured: AUC (µM·h)
API: value field is a number in µM·h; no unit string.

-- ask Dear colleague, I am looking for the recorded AUC of the following molecule: CC1(C)c2nc(-c3ccc(F)cc3)c(Nc3ccc(F)cc3)n2CCN1C(=O)CN [GANAPLACIDE]
-- reply 34.9

###

assay.text: Oral bioavailability in Wistar rat at 30 mg/kg
Assay type: ADME, organism-based
measurement.parameters: in vivo
quantity.measured: bioavailability (%)
API: value field is a number in %; no unit string.

-- ask Dear colleague, I am looking for the recorded bioavailability of the following compound: CC1(C)c2nc(-c3ccc(F)cc3)c(Nc3ccc(F)cc3)n2CCN1C(=O)CN [GANAPLACIDE]
-- reply 40

###

assay.text: AUC (all) in Wistar rat at 10 mg/kg, po
Assay type: ADME, organism-based
Set-up: dose 10 mg/kg, route oral
measurement.parameters: plasma
quantity.measured: AUC (µM·h)
API: value field is a number in µM·h; no unit string.

-- ask Dear colleague, I am looking for the recorded AUC of the following compound: CC1(C)c2nc(-c3ccc(F)cc3)c(Nc3ccc(F)cc3)n2CCN1C(=O)CN [GANAPLACIDE]
-- reply 0.974

###

assay.text: Clearance in Balb/c mouse plasma at 5 mg/kg, iv
Format: ADME, organism-based
Set-up: dose 5 mg/kg, route intravenous
quantity.measured: clearance (mL/min/kg)
API: value field is a number in mL/min/kg; no unit string.

                                   compound  quantity_measured  result_unit  meas_value
0  CC1(C)c2nc(-c3ccc(F)cc3)c(Nc3ccc(F)cc3)n2CCN1C(=O)CN [GANAPLACIDE]          clearance    mL/min/kg        49.2

-- ask Dear colleague, I am looking for the recorded clearance of the following compound: CC1(C)NCCn2c1nc(-c1ccc(F)cc1)c2Nc1ccc(F)cc1
-- reply 25.9

-- ask Next compound up: Cc1ccc(Nc2c(-c3ccc(F)cc3)nc3n2CCN(C(=O)C(C)(C)N)C3(C)C)cc1
-- reply 36.1

-- ask Next compound up: CC1(C)c2nc(-c3ccc(F)cc3)c(Nc3ccc(F)c(F)c3)n2CCN1C(=O)CN
-- reply 27.5

###

assay.text: Metabolic stability in rat liver microsomes assessed as hepatic extraction ratio by LC/MS/MS analysis in presence of CYP
Format: ADME, Microsome
quantity.measured: hepatic extraction ratio
# answer = number (no unit)

>>> df
                            compound_string  meas_value
0  Cc1ccc(Nc2c(-c3ccc(F)cc3)nc3n2CC(=O)NC3)cc1        0.95
1  CC1(C)NCCn2c1nc(-c1ccc(F)cc1)c2Nc1ccc(F)cc1        0.92
2   Cc1ccc(Nc2c(-c3ccc(F)cc3)nc3n2CCNC3)cc1        0.96
3  CC1(C)c2nc(-c3ccc(F)cc3)c(Nc3ccc(F)c(F)c3)n2CCN1C(=O)CN        0.69

Moving on to the next molecule.
-- ask Dear colleague, I am looking for the recorded hepatic extraction ratio of the following molecule: Cc1ccc(Nc2c(-c3ccc(F)cc3)nc3n2CCNC3(C)C)cc1
-- reply 0.93

###

assay.text: Apparent permeability across basolateral to apical side in human Caco2 cells by LC/MS analysis
Type: ADME, cell-based
measurement.parameters: Caco-2
Listing: Papp B→A of selected molecules
API: value field is a number in ×10⁻⁶ cm/s; no unit string.

Worked cases, answers included:
>>> print(df.to_string())
                                   molecule  result_unit  meas_value
0  CC1(C)c2nc(-c3ccc(F)cc3)c(Nc3ccc(F)c(F)c3)n2CCN1C(=O)CN   ×10⁻⁶ cm/s         1.3
1  Cc1ccc(Nc2c(-c3ccc(F)cc3)nc3n2CCN(C(=O)C(C)(C)N)C3(C)C)cc1   ×10⁻⁶ cm/s        2.37
2  Cc1ccc(Nc2c(-c3ccc(F)cc3)nc3n2CCNC3(C)C)cc1   ×10⁻⁶ cm/s        6.96

-- ask Dear colleague, I am looking for the recorded Papp B→A of the following molecule: Cc1ccc(Nc2c(-c3ccc(F)cc3)nc3n2CC(=O)NC3)cc1
-- reply 14.4

-- ask Next molecule up: CC(C)(N)C(=O)N1CCn2c(nc(-c3ccc(F)cc3)c2Nc2ccc(F)cc2)C1(C)C
-- reply 0.97

-- ask Next molecule up: Cc1ccc(Nc2c(-c3ccc(F)cc3)nc3n2CCNC3)cc1
-- reply 2.36

-- ask Next molecule up: CC1(C)c2nc(-c3ccc(F)cc3)c(Nc3ccc(F)cc3)n2CCN1C(=O)CN [GANAPLACIDE]
-- reply 2.99
